target: T1, Human cKIT D1-5 (human cKIT tr. variant 2, residues 26-520, C-terminal His tag) (human, UniProt P10721 26-524); assay: SPR (Biacore T100), CM5 chip, method as in Example 7; unconjugated antibody
T1 construct: also called human cKIT ECD; Human c-Kit ECD
T1 sequence (P10721 other isoform, or with tags, fused parts or gaps mutant limits assumed): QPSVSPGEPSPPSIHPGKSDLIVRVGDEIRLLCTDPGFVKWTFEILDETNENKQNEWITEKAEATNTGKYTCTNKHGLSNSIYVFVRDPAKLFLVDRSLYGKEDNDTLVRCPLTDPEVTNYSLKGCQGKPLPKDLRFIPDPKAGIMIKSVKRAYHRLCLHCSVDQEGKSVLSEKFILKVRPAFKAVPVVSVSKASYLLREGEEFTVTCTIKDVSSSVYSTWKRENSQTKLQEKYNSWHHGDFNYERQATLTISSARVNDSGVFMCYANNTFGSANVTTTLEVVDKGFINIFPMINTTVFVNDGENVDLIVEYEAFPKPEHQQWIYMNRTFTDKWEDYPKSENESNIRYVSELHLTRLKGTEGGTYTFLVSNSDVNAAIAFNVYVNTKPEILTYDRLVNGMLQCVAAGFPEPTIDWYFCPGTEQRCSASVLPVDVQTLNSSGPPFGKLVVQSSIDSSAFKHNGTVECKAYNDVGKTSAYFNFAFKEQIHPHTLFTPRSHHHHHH
Provide the recorded Kd for the entries that follow.
Numbers only, in nM.

Some entries whose results are on file:
Which measured Kd value corresponds to NEG024 (antibody, human IgG1, kappa, V domains shown, Humanized, optimized variant of 9P3; human IgG1 kappa) VH: EVQLVESGGGLVQPGGSLRLSCAASGFTFSDYYMAWVRQAPGKGLEWVANINQIAGSTYYLDSVRGRFTISRDNAKNSLYLQMNSLRAEDTAVYYCARGDYYGTTYWYFDVWGQGTTVTVSS VL: EIVMTQSPATLSLSPGERATLSCRASQDISNYLNWYQQKPGQAPRLLIYYTSRLQSGIPARFSGSGSGTDYTLTISSLEPEDFAVYYCQQGKKLWSFGGGTKVEIKR ? 1.3

Query (binder): NEG086 (antibody, human IgG1, kappa, V domains shown, Humanized, optimized variant of 9P3; human IgG1 kappa) VH: EVQLVESGGGLVQPGGSLRLSCAASGFTFSDYYMAWVRQAPGKGLEWVANINQIAGSTYYVDSVQGRFTISRDNAKNSLYLQMNSLRAEDTAVYYCARGDYYGTTYWYFDVWGQGTTVTVSS VL: DIQMTQSPSSLSASVGDRVTITCRASQSISSYLNWYQQKPGKAPKLLIYYTSRLQSGVPSRFSGSGSGTDFTLTISSLQPEDFATYYCQQGRRLWSFGGGTKVEIKR ; field requested: Kd 1.4

Record request: Kd value, item 20376 (antibody, human IgG1, lambda, V domains shown, human IgG1 lambda) VH: QVQLVQSGAEVKKPGSSVKVSCKASGGTFSSYAISWVRQAPGQGLEWMGGIIPMSGRTTYAQKFQGRVTITADESTSTAYMELSSLRSEDTAVYYCARDYGPEAPDYGQSTSYFWYYAFDPWGQGTLVTVSS VL: DIELTQPPSVSVSPGQTASITCSGDNIPSYFVHWYQQKPGQAPVLVIYDDNDRPSGIPERFSGSNSGNTATLTISGTQAEDEADYYCSSWDQDTVVFGGGTKLTVLG 9.1

From here, focus on the item given below.
Field request: Kd | item: NEG085 (antibody, human IgG1, kappa, V domains shown, Humanized, optimized variant of 9P3; human IgG1 kappa; also called unconjugated NEG085) VH: EVQLVESGGGLVQPGGSLRLSCAASGFAFSGYYMAWVRQAPGKGLEWVANINYPGSSTYYLDSVKGRFTISRDNAKNSLYLQMNSLRAEDTAVYYCARGDYYGTTYWYFDVWGQGTTVTVSS VL: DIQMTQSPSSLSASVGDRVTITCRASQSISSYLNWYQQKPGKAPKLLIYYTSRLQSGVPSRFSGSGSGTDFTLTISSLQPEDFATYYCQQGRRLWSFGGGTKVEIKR 4.2
